This listing pairs compounds with measured pEC50.
System: L. donovani HU3 strain in mouse peritoneal macrophages
Measurement description: Assay for proliferation of Leishmania parasites in mouse peritoneal macrophages
Assay type: cell-based, Leishmania donovani
Condition label: Leishmania donovani, Peritoneal macrophage, read-out: L. donavani Macrophage EC50
pEC50: −log10 of the molar value.

-- ask Please provide the recorded pEC50 for Cc1cnc2nc(-c3cc(NC(=O)c4cccc(N5CCOCC5)c4)ccc3Cl)[nH]c2c1 , tested on L. donovani HU3 strain in mouse peritoneal macrophages.
-- reply < 4.30

-- ask Please provide the recorded pEC50 for Cc1cnc2nc(-c3cc(NC(=O)c4cc(C5CC5)n[nH]4)ccc3Cl)[nH]c2c1 , tested on L. donovani HU3 strain in mouse peritoneal macrophages.
-- reply < 4.30

-- ask Please provide the recorded pEC50 for Cc1cnc2nc(-c3cc(NC(=O)C4CCc5ccccc5O4)ccc3Cl)[nH]c2c1 (stereo not drawn) , tested on L. donovani HU3 strain in mouse peritoneal macrophages.
-- reply < 4.54
